Taken from paper PMC10683025.

assay: Plasma stability; format: in vitro ADME, human; conditions: human plasma; ∞ = no degradation
Readout Kind: half-life at 5 μM (min)
Provide only the numeric value, understood in min.

**Query** # query: half-life at 5 μM of entry CC(C)[N+](C)(CCOC(=O)C1c2ccccc2Oc2ccccc21)C(C)C [Propantheline, reference compound]
**Result** 27.6

###

assay: Caco-2 permeability; assay type: in vitro ADME; settings: human, Caco-2; 5 μM, 2 h
Papp B→A at 2 h, 5 µM by entry:
Provide only the numeric value, understood in ×10⁻⁶ cm/s.

Worked examples, 3 molecules total:
compound_string=COc1cc2ncnc(Nc3ccc(F)c(Cl)c3)c2cc1OCCON1CCOCC1 value_unit="×10⁻⁶ cm/s" number=10.7
compound_string=COc1cc2ncnc(Nc3cccc(Cl)c3F)c2cc1OCCON1CCN(C)CC1 value_unit="×10⁻⁶ cm/s" number=8.6
compound_string=COc1cc2ncnc(Nc3cccc(Cl)c3F)c2cc1OCCON1CCOCC1 value_unit="×10⁻⁶ cm/s" number=10.8

Note: attention shifts to another entry.
**Query** # query: Papp B→A at 2 h, 5 µM of entry COc1cc2ncnc(Nc3ccc(F)c(Cl)c3)c2cc1OCCON1CCN(C)CC1
**Result** 12.1

###

Remaining Percentages by entry:
assay: Plasma stability; assay type: in vitro ADME, human; conditions: human plasma, 30 min

Worked examples, 4 compounds total:
compound="CC(C)[N+](C)(CCOC(=O)C1c2ccccc2Oc2ccccc21)C(C)C [Propantheline, reference compound]" readout_kind="Remaining Percentages" result=48.79%
compound=COc1cc2ncnc(Nc3cccc(Cl)c3F)c2cc1OCCON1CCOCC1 readout_kind="Remaining Percentages" result=93.61%
compound=COc1cc2ncnc(Nc3cccc(Cl)c3F)c2cc1OCCON1CCN(C)CC1 readout_kind="Remaining Percentages" result=92.26%
compound="COc1cc2ncnc(Nc3ccc(F)c(Cl)c3)c2cc1OCCCN1CCOCC1 [Gefitinib (1), Gefitinib, reference compound]" readout_kind="Remaining Percentages" result=103.92%

Note: attention shifts to another entry.
**Query** # query: Remaining Percentages of entry COc1cc2ncnc(Nc3ccc(F)c(Cl)c3)c2cc1OCCON1CCOCC1
**Result** 102.87%

###

experiment: Plasma protein binding by equilibrium dialysis; type: in vitro ADME, mouse; details: CD-1, mouse, mouse plasma
Readout Kind: remaining at 6 h, 5 μM (%)
Provide only the numeric value, understood in %.

Worked examples, 2 compounds total:
compound=COc1cc2ncnc(Nc3cccc(Cl)c3F)c2cc1OCCON1CCOCC1 number=102
compound="COc1cc2ncnc(Nc3ccc(F)c(Cl)c3)c2cc1OCCCN1CCOCC1 [Gefitinib (1), Gefitinib, reference compound]" number=98

Note: attention shifts to another entry.
**Query** # query: remaining at 6 h, 5 μM of entry COc1cc2ncnc(Nc3cccc(Cl)c3F)c2cc1OCCON1CCN(C)CC1
**Result** 92.9

###

assay: Pharmacokinetic study; format: in vivo, Sprague-Dawley rats; settings: male, Sprague-Dawley, plasma; Rat 2 mg/kg (IV)
Readout Kind: half-life at 24 h
Record the result as a number with its unit.

**Query** # query: half-life at 24 h of entry COc1cc2ncnc(Nc3cccc(Cl)c3F)c2cc1OCCON1CCN(C)CC1
**Result** 2.4 h

###

experiment: Plasma stability; assay type: in vitro ADME, Sprague-Dawley rat; settings: Sprague-Dawley; rat plasma; ∞ = no degradation
Readout Kind: half-life at 5 μM (min)
Provide only the numeric value, understood in min.

**Query** # query: half-life at 5 μM of entry CC[C@H](C)C(=O)O[C@H]1C[C@@H](C)C=C2C=C[C@H](C)[C@H](CC[C@@H]3C[C@@H](O)CC(=O)O3)[C@H]21 [Mevinolin, reference compound]
**Result** 2.49
